# assay.system: IL16_4, Q14005
# Sequence (Q14005 1229-1329): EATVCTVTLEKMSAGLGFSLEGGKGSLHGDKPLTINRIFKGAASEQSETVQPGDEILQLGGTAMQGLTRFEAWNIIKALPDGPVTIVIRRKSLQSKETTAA
# protocol.notes: holdup assay
# Design: key: below the threshold = too weak to quantify, mostly under pKd 3.1 to 4
# protocol.conditions: plain residues with an end cap or a label only (N-terminal biotin on a linker: ttds)
property.label: pKd

Answered cases to consult:
SEKHFRETEV [HTLV1-TAX1, P03409]
below the threshold
QFQYAKESYI [TAGAP, Q8N103]
below the threshold
DPRNTQTSQI [ABRAXAS2, Q15018]
3.66
LDSQIQETSI [MAP4, P27816]
below the threshold

Could you share which pKd value was measured for LCALPKVTTV [AGMAT, Q9BSE5] ? below the threshold

Could you share which pKd value was measured for PKRPFVESNV [TANC2, Q9HCD6] ? below the threshold
